assay: mn = molality of the nth substance listed, in mol/kg; settings: 293.15 K; 101 kPa; Liquid; Vibrating tube method; m2 = 0
± gives the expanded uncertainty stated by the source.
Measured Quantity: mass density
Give the figure together with its unit, number first.

Here's what some known entries look like.
Prompt: Provide mass density value for the following compound: C[S+](C)[O-] [dimethyl sulfoxide] + [Mg+2].[O-][Cl+3]([O-])([O-])[O-].[O-][Cl+3]([O-])([O-])[O-]
Completion: 1100.21 ± 0.23 kg/m3

Prompt: Provide mass density value for the following compound: C[S+](C)[O-] [dimethyl sulfoxide] + O=S(=O)([O-])C(F)(F)F.O=S(=O)([O-])C(F)(F)F.[Be+2]
Completion: 1100.21 ± 0.23 kg/m3

Prompt: Provide mass density value for the following compound: C[S+](C)[O-] [dimethyl sulfoxide] + [Ba+2].[O-][Cl+3]([O-])([O-])[O-].[O-][Cl+3]([O-])([O-])[O-]
Completion: 1100.21 ± 0.31 kg/m3

Prompt: Provide mass density value for the following compound: CO [methanol] + O=S(=O)([O-])C(F)(F)F.[Na+]
Completion: 791.158 ± 0.17 kg/m3

Give one value of mass density per listed compound.
1. C[S+](C)[O-] [dimethyl sulfoxide] + [Ca+2].[O-][Cl+3]([O-])([O-])[O-].[O-][Cl+3]([O-])([O-])[O-]
2. CO [methanol] + [Ca+2].[O-][Cl+3]([O-])([O-])[O-].[O-][Cl+3]([O-])([O-])[O-]

Completion:
1. 1100.21 ± 0.23 kg/m3
2. 791.168 ± 0.23 kg/m3

====

Assignment: determine reported mass density for the given compounds.
test: mn = molality of the nth substance listed, in mol/kg; conditions: 308.15 K; 101 kPa; Liquid; Vibrating tube method; m2 = 0
Answers are plain numbers, in kg/m3.

Prompt: Provide mass density value for the following compound: CO [methanol] + [Ca+2].[O-][Cl+3]([O-])([O-])[O-].[O-][Cl+3]([O-])([O-])[O-]
Completion: 776.98

Prompt: Provide mass density value for the following compound: CO [methanol] + [Ba+2].[O-][Cl+3]([O-])([O-])[O-].[O-][Cl+3]([O-])([O-])[O-]
Completion: 776.993

Prompt: Provide mass density value for the following compound: CO [methanol] + O=S(=O)([O-])C(F)(F)F.O=S(=O)([O-])C(F)(F)F.[Be+2]
Completion: 776.993

Give one value of mass density per listed compound.
1. CO [methanol] + [Mg+2].[O-][Cl+3]([O-])([O-])[O-].[O-][Cl+3]([O-])([O-])[O-]
2. CO [methanol] + O=S(=O)([O-])C(F)(F)F.[Na+]
3. CO [methanol] + [O-][Cl+3]([O-])([O-])[O-].[O-][Cl+3]([O-])([O-])[O-].[Sr+2]

Completion:
[776.985, 776.97, 776.973]

====

assay: mn = molality of the nth substance listed, in mol/kg; conditions: 298.15 K; 101 kPa; Liquid; Vibrating tube method; m2 = 0
Assignment: determine reported mass density for the given compounds.
Give bare numbers, in kg/m3.

Prompt: Provide mass density value for the following compound: C[S+](C)[O-] [dimethyl sulfoxide] + [Mg+2].[O-][Cl+3]([O-])([O-])[O-].[O-][Cl+3]([O-])([O-])[O-]
Completion: 1095.18

Prompt: Provide mass density value for the following compound: C[S+](C)[O-] [dimethyl sulfoxide] + [Ca+2].[O-][Cl+3]([O-])([O-])[O-].[O-][Cl+3]([O-])([O-])[O-]
Completion: 1095.18

Give one value of mass density per listed compound.
1. CO [methanol] + [Ca+2].[O-][Cl+3]([O-])([O-])[O-].[O-][Cl+3]([O-])([O-])[O-]
2. CO [methanol] + [Ba+2].[O-][Cl+3]([O-])([O-])[O-].[O-][Cl+3]([O-])([O-])[O-]
3. C[S+](C)[O-] [dimethyl sulfoxide] + O=S(=O)([O-])C(F)(F)F.O=S(=O)([O-])C(F)(F)F.[Be+2]
4. C[S+](C)[O-] [dimethyl sulfoxide] + [O-][Cl+3]([O-])([O-])[O-].[O-][Cl+3]([O-])([O-])[O-].[Sr+2]
5. C[S+](C)[O-] [dimethyl sulfoxide] + [Ba+2].[O-][Cl+3]([O-])([O-])[O-].[O-][Cl+3]([O-])([O-])[O-]
6. CO [methanol] + [Mg+2].[O-][Cl+3]([O-])([O-])[O-].[O-][Cl+3]([O-])([O-])[O-]
7. CO [methanol] + O=S(=O)([O-])C(F)(F)F.[Na+]
8. CO [methanol] + [O-][Cl+3]([O-])([O-])[O-].[O-][Cl+3]([O-])([O-])[O-].[Sr+2]

Completion:
786.458
786.468
1095.18
1095.18
1095.18
786.46
786.447
786.447

Give one value of mass density per listed compound.
1. C[S+](C)[O-] [dimethyl sulfoxide] + O=S(=O)([O-])C(F)(F)F.[Na+]
2. CO [methanol] + O=S(=O)([O-])C(F)(F)F.O=S(=O)([O-])C(F)(F)F.[Be+2]

Completion:
1095.18
786.469

Data provenance is the NIST ThermoML archive (doi:10.1016/j.jct.2010.04.013).
